Field: PBM E-score. Provide a value for each of the sequences that follow.
- System Name: Ecm22 (UniProt Q05958)
- Sequence: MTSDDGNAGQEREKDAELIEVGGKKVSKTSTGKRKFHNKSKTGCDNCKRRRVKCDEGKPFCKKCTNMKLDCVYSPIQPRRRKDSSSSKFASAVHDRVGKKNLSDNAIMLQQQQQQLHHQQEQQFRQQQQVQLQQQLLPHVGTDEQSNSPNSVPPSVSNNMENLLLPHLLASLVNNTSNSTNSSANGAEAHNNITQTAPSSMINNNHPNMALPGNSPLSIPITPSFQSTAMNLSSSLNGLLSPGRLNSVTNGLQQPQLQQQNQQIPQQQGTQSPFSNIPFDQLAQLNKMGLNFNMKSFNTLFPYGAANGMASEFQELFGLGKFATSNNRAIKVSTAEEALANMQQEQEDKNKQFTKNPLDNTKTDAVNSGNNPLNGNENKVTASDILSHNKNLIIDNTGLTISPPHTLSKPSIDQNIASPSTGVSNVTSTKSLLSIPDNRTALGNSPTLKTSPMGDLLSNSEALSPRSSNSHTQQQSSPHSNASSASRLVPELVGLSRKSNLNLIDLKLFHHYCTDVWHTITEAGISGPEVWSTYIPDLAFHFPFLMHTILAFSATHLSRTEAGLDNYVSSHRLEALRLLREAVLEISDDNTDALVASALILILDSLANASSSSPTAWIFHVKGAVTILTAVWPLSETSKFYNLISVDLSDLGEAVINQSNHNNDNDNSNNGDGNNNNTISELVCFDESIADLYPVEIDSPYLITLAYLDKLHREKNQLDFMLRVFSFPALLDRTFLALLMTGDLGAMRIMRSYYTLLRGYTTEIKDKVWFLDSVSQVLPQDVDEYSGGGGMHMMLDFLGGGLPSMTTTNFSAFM
- Test Protocol: PBM E-score (8-mer binding enrichment) (E-score (-0.5 to 0.5)); higher = stronger / more preferred TF binding
- Run Parameters: protein concentration: 200 nM; construct: GST-full length
In all, about 33,000 sequences were measured (“E-score (-0.5 to 0.5)”: median about -0.041, highest 2% from about 0.37 on). The sample holds the highest values, similar sequences and a random draw of the others, so the mix is not that of the screen.
// response body must contain only the number

### Prompt Query: PBM E-score; subject: AATCGTAA
### Response 0.333

### Prompt Try the sequence AACGAGTT
### Response 0.41

### Prompt Try the sequence AACGAGTA
### Response 0.433

### Prompt Try the sequence GATCGTCC
### Response -0.0538

### Prompt Try the sequence AGCGAGTG
### Response 0.324

### Prompt Try the sequence CACGAGTG
### Response 0.106

### Prompt Try the sequence AGCTGTAT
### Response -0.124

### Prompt Try the sequence CGTACCGA
### Response 0.447

### Prompt Try the sequence AATCGTAT
### Response 0.427

### Prompt Try the sequence AATTCGTC
### Response 0.0772

### Prompt Try the sequence AACGAGTG
### Response 0.421

### Prompt Try the sequence GACACCTC
### Response 0.148

### Prompt Try the sequence ACGGGTCG
### Response 0.267

### Prompt Try the sequence AAAGAGTT
### Response -0.264

### Prompt Try the sequence CGCCACTC
### Response -0.016

---

- System Name: Ecm22 (UniProt Q05958)
- Sequence: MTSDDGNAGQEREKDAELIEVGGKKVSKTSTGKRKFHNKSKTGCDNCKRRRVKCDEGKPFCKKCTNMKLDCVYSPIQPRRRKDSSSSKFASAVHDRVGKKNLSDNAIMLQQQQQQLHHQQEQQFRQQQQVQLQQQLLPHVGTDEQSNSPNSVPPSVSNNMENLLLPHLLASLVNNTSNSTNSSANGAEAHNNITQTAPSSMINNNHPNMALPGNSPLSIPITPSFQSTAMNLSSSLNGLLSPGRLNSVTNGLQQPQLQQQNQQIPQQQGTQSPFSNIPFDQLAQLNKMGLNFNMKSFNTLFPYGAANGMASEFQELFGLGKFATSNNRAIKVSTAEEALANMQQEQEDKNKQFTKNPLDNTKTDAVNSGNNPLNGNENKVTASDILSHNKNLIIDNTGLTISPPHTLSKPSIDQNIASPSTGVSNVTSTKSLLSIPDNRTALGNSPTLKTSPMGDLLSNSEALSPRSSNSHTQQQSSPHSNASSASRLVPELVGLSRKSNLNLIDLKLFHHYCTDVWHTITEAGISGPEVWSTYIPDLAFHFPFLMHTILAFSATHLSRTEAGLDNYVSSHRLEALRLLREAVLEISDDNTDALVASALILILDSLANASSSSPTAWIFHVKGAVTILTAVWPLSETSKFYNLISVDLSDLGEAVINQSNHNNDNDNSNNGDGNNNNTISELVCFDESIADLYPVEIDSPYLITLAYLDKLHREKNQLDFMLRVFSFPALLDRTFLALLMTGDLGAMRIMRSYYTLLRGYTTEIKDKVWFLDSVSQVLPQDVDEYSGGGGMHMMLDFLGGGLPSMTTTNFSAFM
- Test Protocol: PBM E-score (8-mer binding enrichment) (E-score (-0.5 to 0.5)); higher = stronger / more preferred TF binding
- Run Parameters: protein concentration: 200 nM; construct: GST-full length
Over roughly 33,000 sequences, “E-score (-0.5 to 0.5)” has its median near -0.041; the highest 2% begin near 0.37. This excerpt belongs to a sample that is enriched for the highest values.
Measurement Name: PBM E-score
// response body must contain only the number

### Prompt Query: PBM E-score; subject: AAGCTTGT
### Response 0.0175

### Prompt Try the sequence AGGTGCTG
### Response -0.371

### Prompt Try the sequence CACGAAGC
### Response 0.0604

### Prompt Try the sequence CACGAATC
### Response 0.0959

### Prompt Try the sequence CCAGAGAA
### Response 0.0432

### Prompt Try the sequence TACGAAGA
### Response 0.444

### Prompt Try the sequence AACGAAGT
### Response 0.419

### Prompt Try the sequence TAGATAAA
### Response 0.057

### Prompt Try the sequence AACGAAGA
### Response 0.421

### Prompt Try the sequence GCCCAACC
### Response 0.0862

### Prompt Try the sequence AACGAAGC
### Response 0.437

### Prompt Try the sequence CCATTAGC
### Response -0.0326

---

- System Name: Ecm22 (UniProt Q05958)
- Sequence: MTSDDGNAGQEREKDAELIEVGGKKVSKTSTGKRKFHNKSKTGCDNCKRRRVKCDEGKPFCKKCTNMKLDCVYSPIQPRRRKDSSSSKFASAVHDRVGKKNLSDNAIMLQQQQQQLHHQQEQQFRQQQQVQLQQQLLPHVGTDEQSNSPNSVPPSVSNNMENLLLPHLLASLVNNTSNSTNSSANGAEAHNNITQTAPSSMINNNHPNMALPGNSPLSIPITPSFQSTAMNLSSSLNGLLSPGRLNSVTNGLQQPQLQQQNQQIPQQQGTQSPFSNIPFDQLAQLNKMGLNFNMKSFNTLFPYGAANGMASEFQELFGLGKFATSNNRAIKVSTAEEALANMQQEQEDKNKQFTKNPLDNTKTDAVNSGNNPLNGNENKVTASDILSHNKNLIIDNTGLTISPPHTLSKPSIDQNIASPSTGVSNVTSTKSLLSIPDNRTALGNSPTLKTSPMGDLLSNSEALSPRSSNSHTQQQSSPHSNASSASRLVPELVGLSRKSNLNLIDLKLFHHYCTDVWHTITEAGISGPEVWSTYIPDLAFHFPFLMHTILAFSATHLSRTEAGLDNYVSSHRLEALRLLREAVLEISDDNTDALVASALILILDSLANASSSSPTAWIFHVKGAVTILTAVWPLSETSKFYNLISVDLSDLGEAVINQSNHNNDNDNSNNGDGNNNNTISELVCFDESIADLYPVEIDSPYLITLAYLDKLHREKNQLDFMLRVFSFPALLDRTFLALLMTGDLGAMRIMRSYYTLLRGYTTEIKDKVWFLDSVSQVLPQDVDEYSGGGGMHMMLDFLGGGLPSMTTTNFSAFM
- Test Protocol: PBM E-score (8-mer binding enrichment) (E-score (-0.5 to 0.5)); higher = stronger / more preferred TF binding
- Run Parameters: protein concentration: 200 nM; construct: GST-full length
In all, about 33,000 sequences were measured (“E-score (-0.5 to 0.5)”: median about -0.041, highest 2% from about 0.37 on). The sample holds the highest values, similar sequences and a random draw of the others, so the mix is not that of the screen.
Field: PBM E-score. Provide a value for each of the sequences that follow.
// response body must contain only the number

### Prompt Query: PBM E-score; subject: AACCGTTA
### Response 0.0731

### Prompt Try the sequence ATGAGAAT
### Response -0.0978

### Prompt Try the sequence ACGAGAAT
### Response 0.385

### Prompt Try the sequence TCGAGAAA
### Response 0.0202

### Prompt Try the sequence GACGTACA
### Response 0.211

### Prompt Try the sequence ACGAGAAA
### Response 0.375
